# credit: the PolyMetriX glass transition set

Label 1 when glass transition temperature < 70 °C; otherwise 0.

molecule: *c1ccc2c(c1)C(=O)N(c1cccc(P(=O)(c3ccc(C(F)(F)F)cc3)c3cccc(N4C(=O)c5ccc(C(*)(C(F)(F)F)C(F)(F)F)cc5C4=O)c3)c1)C2=O (repeat unit)
categoryLabel: 0

For this molecule, is glass transition temperature lower than 70 °C? *c1ccc(Nc2ccc(C3(c4ccc(Nc5ccc(S(*)(=O)=O)cc5)c(C)c4)c4ccccc4-c4ccccc43)cc2C)cc1 (repeat unit)
0

Field: below-cutoff. Rule: recorded glass transition temperature strictly less than 70 °C. Subject: *Oc1c(C)cc(*)cc1-c1ccccc1 (repeat unit)
0

Is glass transition temperature of *OC(=O)C(Cc1ccccc1)NC(=O)CCCCCCCCCCC(=O)NC(Cc1ccccc1)C(=O)OC1COC2C(*)COC12 (repeat unit) strictly below 70 °C?
0

Consider *c1cc(CCCCBr)c(*)s1 (repeat unit) . Does its glass transition temperature lie strictly below 70 °C?
1

Would you kindly verify if glass transition temperature of *c1ccc(OCCOCCOCCOc2cccc(N3C(=O)c4ccc(Oc5ccc6c(c5)C(=O)N(*)C6=O)cc4C3=O)c2)cc1 (repeat unit) is strictly less than 70 °C?
0

Criterion: glass transition temperature strictly below 70 °C. Is it met by *CCCCCCCCCCNC(=O)CCP(C)(=O)CCC(=O)N* (repeat unit) ?
1

Answer whether the molecule *CC(*)(C)C(=O)OCCC (repeat unit) [Poly(n-propyl methacrylate) ] has glass transition temperature strictly less than 70 °C
1

Dear colleague, could you confirm whether glass transition temperature of *CCCCCC(*)CCC (repeat unit) falls below 70 °C? Thanks.
1

Hello, is glass transition temperature of the following molecule strictly smaller than 70 °C? *Oc1ccc(NC(=O)c2ccc(-c3ccc(C(=O)Nc4ccc(Oc5ccc(C6(c7ccc(*)cc7)CC7CCC6C7)cc5)cc4)cc3)cc2)cc1 (repeat unit)
0

Dear reviewer, please state whether *CC(CS(=O)(=O)CCCCC)O* (repeat unit) has glass transition temperature strictly beneath 70 °C.
1

Dear reviewer, please state whether *CC(*)(C)C(=O)OCc1c(F)cccc1F (repeat unit) has glass transition temperature strictly beneath 70 °C.
0

Take the molecule *Cc1cccc(CNC(=O)CCCCC(=O)N*)c1 (repeat unit) and say whether its glass transition temperature is less than 70 °C.
0

Confirm or reject: glass transition temperature of *CC(*)(C)C(=O)OCCCCCCCCCC (repeat unit) [Poly(decyl methacrylate)] lies strictly below 70 °C
1

Strictly below 70 °C in glass transition temperature? *c1cccc(P(=O)(c2ccccc2)c2cccc(N3C(=O)c4ccc(NC(=O)OCCOc5ccc(C(c6ccc(OCCOC(=O)Nc7ccc8c(c7)C(=O)N(*)C8=O)cc6)(C(F)(F)F)C(F)(F)F)cc5)cc4C3=O)c2)c1 (repeat unit)
0

Just wondering, is glass transition temperature of *O[Si](*)(CCCOCCOCCOCCOC)CCCOCCOCCOCCOC (repeat unit) below 70 °C?
1
